Measured Agonist index by item
# System: Muscarinic acetylcholine receptors (Rattus norvegicus)
# Protocol Summary: Relative efficacy and M1 selectivity by agonist index.
Outcome Measure: Agonist index

Mol Smiles	Outcome Measure	Reported
C#CCOc1noc2c1CNCCC2	Agonist index	104
CCOc1noc2c1CNCCC2	Agonist index	25
CC(C)Oc1noc2c1CNCCC2	Agonist index	5.4
COc1noc2c1CNCCC2	Agonist index	104

* * *

# Tested System: Muscarinic acetylcholine receptor
# Protocol Summary: In vitro binding affinity to the Muscarinic acetylcholine receptor by displacing [3H]-QNB from the rat heart tissues
# Format: protein assay
Outcome Measure: IC50 (µM)

Mol Smiles	Outcome Measure	Reported
C#CCOc1noc2c1CNCCC2	IC50	0.082
CC(C)Oc1noc2c1CNCCC2	IC50	0.36
O=C1CCCN1CC#CCN1CCCC1	IC50	0.084
COc1noc2c1CNCCC2	IC50	0.35
CCOc1noc2c1CNCCC2	IC50	0.14
